Provenance of the data: patent US4546176A

- System: Pseud. aeruginosa EP-01
- assay.comment: Antibacterial activities (MIC), Pseud. aeruginosa EP-01
- Format: cell-based
- experimental.context: Pseudomonas aeruginosa, EP01
Field: MIC. Provide a value for each of the compounds that follow.
Answers are plain numbers, in µg/mL.

Working through the 4 compounds below one at a time, give MIC for each.
1. CC(=O)Oc1ccc2c(=O)c(C(=O)N[C@@H](C(=O)N[C@@H]3C(=O)N4C(C(=O)O)=C(CSc5nnnn5CC(=O)O)CS[C@H]34)c3ccc(OCC(=O)O)cc3)c(C)oc2c1OC(C)=O
2. O=C(O)COc1ccc([C@@H](NC(=O)c2coc3cc(O)c(O)cc3c2=O)C(=O)N[C@@H]2C(=O)N3C(C(=O)O)=C(CSc4nnnn4CC(=O)O)CS[C@H]23)cc1
3. O=C(O)COc1ccc([C@@H](NC(=O)c2coc3cc(O)c(O)cc3c2=O)C(=O)N[C@@H]2C(=O)N3C(C(=O)[O-])=C(C[n+]4ccc(CCS(=O)(=O)O)cc4)CS[C@H]23)cc1
4. O=C(O)COc1ccc([C@@H](NC(=O)c2coc3c(O)c(O)ccc3c2=O)C(=O)N[C@@H]2C(=O)N3C(C(=O)O)=C(CSc4nnnn4CC(=O)O)CS[C@H]23)cc1

1. 0.8
2. 0.1
3. 0.4
4. 0.8

Would you kindly share the measured MIC for CN(C)CCn1nnnc1SCC1=C(C(=O)O)N2C(=O)[C@@H](NC(=O)[C@H](NC(=O)c3coc4cc(O)c(O)cc4c3=O)c3ccc(OCC(=O)O)cc3)[C@H]2SC1 ? 0.1
